// endpoint IC50 / system Cytochrome P450 2C19 (Homo sapiens, UniProt P33261)

>>> endpoint_value("COCCCOc1cc2c(cc1OC)-c1cc(=O)c(C(=O)O)cn1[C@H](C(C)C)C2")
"> 25 µM"

Let us examine a further case.
Let me know recorded IC50 for `COCCCOc1cc2c(nc1OC)-c1cc(=O)c(C(=O)O)cn1[C@H](C(C)C)C2` , thanks.
> 25 µM

====

assay: Cmax in CD-1 mouse at 10 mg/kg,po measured at 0.083 to 24 hrs post administration by LC-MS/MS analysis; type: ADME, organism-based; conditions: in vivo, time 0.083-24 hrs
Give measured Cmax for each item. Keep answers brief.
# number then unit; no other words

Hi! Can you tell me Cmax for each of these molecules?
1. COCCCOc1cc2c(cc1C1CC1)-c1cc(=O)c(C(=O)O)cn1[C@H](C(C)C)CO2
2. COCCCOc1cc2c(nc1OC)-c1cc(=O)c(C(=O)O)cn1[C@H](C(C)C)C2

1. 0.914 µg/mL
2. 1.11 µg/mL

Hi! Can you tell me Cmax for each of these molecules?
1. COCCCOc1cc2c(cc1Cl)-c1cc(=O)c(C(=O)O)cn1[C@H](C(C)C)CO2
2. COCCCOc1cc2c(cc1OC)-c1cc(=O)c(C(=O)O)cn1[C@H](C(C)C)C2
3. CCc1cc2c(cc1OCCCOC)OC[C@@H](C(C)C)n1cc(C(=O)O)c(=O)cc1-2
4. COCCCOc1cc2c(nc1OC)-c1cc(=O)c(C(=O)O)cn1[C@](C)(C(C)(C)C)C2
5. COCCCOc1cc2c(nc1OC)-c1cc(=O)c(C(=O)O)cn1[C@](C)(C(C)C)C2

1. 0.702 µg/mL
2. 1.84 µg/mL
3. 0.844 µg/mL
4. 0.653 µg/mL
5. 0.639 µg/mL

====

tested on: Hepatitis B virus; experiment: Antiviral activity against HBV infected in human HepG2.2.15 cells assessed as inhibition of HBsAg level incubated for 6 days by microplate-based chemiluminescence immunoassay; type: functional, organism-based; conditions: HepG2 2.2.15, 144 h
reported_metric: log10 EC50 (log10 of the value in nM)
Response schema: value (number) is log10 of EC50 in units of nM.

Illustrative cases are given below, each with its answer.
>>> endpoint_value("CC(C)[C@@H]1COc2cc(OCCCN3CCOCC3)c(Cl)cc2-c2cc(=O)c(C(=O)O)cn21")
2.15
>>> endpoint_value("COc1cc2c(nc1OC)-c1cc(=O)c(C(=O)O)cn1[C@H](C(C)C)C2")
0.85
>>> endpoint_value("COc1cc2c(cn1)-c1cc(=O)c(C(=O)O)cn1C(C(C)C)C2 (centres undefined)")
2.98
>>> endpoint_value("CC(C)[C@@H]1COc2cc(OCC(F)(F)F)c(Cl)cc2-c2cc(=O)c(C(=O)O)cn21")
1.94

Hi! Can you tell me log10 EC50 for each of these compounds?
1. CCC1(C(C)C)Cc2cc(OCCCOC)c(OC)nc2-c2cc(=O)c(C(=O)O)cn21 (centres undefined)
2. COc1nc2c(cc1OCCCO)C[C@@H](C(C)C)n1cc(C(=O)O)c(=O)cc1-2
3. COCCCOc1cc2c(nc1OC)-c1cc(=O)c(C(=O)O)cn1[C@](C)(C(C)(C)C)C2
4. COCCCOc1cc2c(nc1OC)-c1cc(=O)c(C(=O)O)cn1[C@H](C(C)C)C2
5. CC(C)[C@@H]1COc2cc(OCCCCO)c(Cl)cc2-c2cc(=O)c(C(=O)O)cn21

1. 0.78
2. 0.85
3. 0.00
4. 0.00
5. 1.15
